Measured values drawn from ChEMBL document CHEMBL3351488 for this set.

Provide the reported pIC50 of each item.
Assay: Cytotoxicity against human PC3 cells assessed as inhibition of cell viability after 24 hrs by CCK-8 assay
Format: functional, cell-based
Condition summary: PC-3, 24 h
In plain terms, pIC50 is the concentration in mol/L turned into minus its base-10 logarithm.

Query: What measured pIC50 goes with COc1cc(OC)cc(OCc2ccc(CCN3CCN(c4ccc(Cl)cc4)CC3)cc2)c1 ?
Reply: 4.72

Query: What measured pIC50 goes with COc1cc(OC)cc(OCc2ccc(CCN3CCN(c4cc(Cl)ccc4OC)CC3)cc2)c1 ?
Reply: 4.57

Query: What measured pIC50 goes with COc1cc(OC)cc(OCc2ccc(CCN3CCN(c4ccccc4OC)CC3)cc2)c1 ?
Reply: 4.58

Query: What measured pIC50 goes with COc1cc(OC)cc(OCc2ccc(CCN3CCN(c4ccccc4C(F)(F)F)CC3)cc2)c1 ?
Reply: 4.40

Query: What measured pIC50 goes with COc1ccccc1N1CCN(CC(O)COc2cccc3ccccc23)CC1 (stereo unspecified) [NAFTOPIDIL] ?
Reply: 4.38

Query: What measured pIC50 goes with CCOc1ccccc1N1CCN(CCc2ccc(COc3cc(OC)cc(OC)c3)cc2)CC1 ?
Reply: 4.57

Query: What measured pIC50 goes with COc1cc(OC)cc(OCc2ccc(CCN3CCN(c4ccccc4C)CC3)cc2)c1 ?
Reply: 4.52

Query: What measured pIC50 goes with COc1cc(OC)cc(OCc2ccc(CCN3CCN(c4ccc(C)cc4)CC3)cc2)c1 ?
Reply: 4.32

Query: What measured pIC50 goes with COc1cc(OC)cc(OCc2ccc(CCN3CCN(c4ccccc4F)CC3)cc2)c1 ?
Reply: 4.60

Query: What measured pIC50 goes with COc1cc(OC)cc(OCc2ccc(CCN3CCN(c4ccc(F)cc4)CC3)cc2)c1 ?
Reply: 4.54

Query: What measured pIC50 goes with COc1cc(OC)cc(OCc2ccc(CCN3CCN(c4cccc(Cl)c4Cl)CC3)cc2)c1 ?
Reply: 4.73

Query: What measured pIC50 goes with COc1cc(OC)cc(OCc2ccc(CCN3CCN(c4cccc(C)c4)CC3)cc2)c1 ?
Reply: 4.51

Query: What measured pIC50 goes with COc1cc(OC)cc(OCc2ccc(CCN3CCN(c4ccccc4Cl)CC3)cc2)c1 ?
Reply: 4.60

Query: What measured pIC50 goes with COc1cc(OC)cc(OCc2ccc(CCN3CCN(c4ccc(C(F)(F)F)cc4)CC3)cc2)c1 ?
Reply: 4.62

Query: What measured pIC50 goes with COc1cc(OC)cc(OCc2ccc(CCN3CCN(c4ccc(F)cc4F)CC3)cc2)c1 ?
Reply: 4.45

Query: What measured pIC50 goes with COc1cc(OC)cc(OCc2ccc(CCN3CCN(c4ccc(Br)cc4)CC3)cc2)c1 ?
Reply: 4.59

Query: What measured pIC50 goes with COc1cc(OC)cc(OCc2ccc(CCN3CCN(c4cc(Cl)ccc4C)CC3)cc2)c1 ?
Reply: 4.49

Query: What measured pIC50 goes with COc1cc(OC)cc(OCc2ccc(CCN3CCN(c4ccccc4S(C)(=O)=O)CC3)cc2)c1 ?
Reply: 5.03

Query: What measured pIC50 goes with COc1cc(OC)cc(OCc2ccc(CCN3CCN(Cc4ccccc4)CC3)cc2)c1 ?
Reply: 5.17

Query: What measured pIC50 goes with COc1cc(OC)cc(OCc2ccc(CCN3CCN(c4ccccc4)CC3)cc2)c1 ?
Reply: 4.51

Query: What measured pIC50 goes with COc1ccc(N2CCN(CCc3ccc(COc4cc(OC)cc(OC)c4)cc3)CC2)cc1 ?
Reply: 4.48

Query: What measured pIC50 goes with COc1cc(OC)cc(OCc2ccc(CCN3CCN(c4cccc(Cl)c4)CC3)cc2)c1 ?
Reply: 4.51

Query: What measured pIC50 goes with COc1cc(OC)cc(OCc2ccc(CCN3CCN(c4ccc(C#N)cc4)CC3)cc2)c1 ?
Reply: 4.56

Query: What measured pIC50 goes with COc1cc(OC)cc(OCc2ccc(CCN3CCN(c4cccc(OC)c4)CC3)cc2)c1 ?
Reply: 4.60

Query: What measured pIC50 goes with COc1cc(OC)cc(OCc2ccc(CCN3CCN(c4cc(C)ccc4C)CC3)cc2)c1 ?
Reply: 4.51

Query: What measured pIC50 goes with COc1cc(OC)cc(OCc2ccc(CCN3CCN(c4ccccn4)CC3)cc2)c1 ?
Reply: 4.59
